From: ChEMBL document CHEMBL1201862

# Tested on: NCI-H23
# TEST NAME: NCI tumour cell line growth inhibition, 48 h
Calls of active or inactive are those of the source. No stated cut-off is given here; in the data, active = GI50 up to about 1.1 µM and inactive = higher.
Classes used: 1 for active, -1 for inactive

- NC(=O)c1nc[nH]c1/N=N/SCC(N)C(=O)O (stereo not drawn): -1
- CCCCn1cnnc1NS(=O)(=O)c1cc(C)c(Cl)cc1SCC(=O)O: -1
- Cc1cc2c(cn1)C(=O)OCC2: -1
- Nc1cc2c3c(cccc3c1)NC2=O: -1
- C[C@@H]1Nc2cc(NC(=O)OCCF)nc(N)c2N=C1c1ccccc1: 1
- Nc1nc(=O)[nH]c2c1cnn2C1CCCCO1 (stereo not drawn): -1
- C=C1C(O)C[C@H](OC(C)=O)[C@]2(C)C1C(OC(C)=O)[C@]1(C(C)(C)O)CC(O)C(C)=C1[C@@H](OC(=O)c1ccccc1)C2OC(C)=O (stereo partly drawn): -1
- Cc1cc(-c2nc3c(O)cccc3s2)ccc1N: -1
- COC(=O)C1c2c(c3ccccc3n2C(=O)OC)CCN2CCC1C(S(=O)(=O)c1ccccc1)C2=O (stereo not drawn): -1
- CC(C)(C)OC(=O)n1cc(C2CNC(=O)C23CCC(=O)N3Cc2ccccc2)c2ccccc21 (stereo not drawn): -1
- COC(=O)C1Cc2c([nH]c3ccccc23)C(c2cccc(O)c2)N1 (stereo not drawn): -1
- CC(C)N(C(=O)C12C3C4C5(C(=O)O)C(C1C35I)C42C(=O)O)C(C)C (stereo not drawn): -1
- COC(=O)C(/C(=N/N)C(=O)Nc1cccc(O)c1)c1nc2ccccc2nc1O (stereo not drawn): -1
- Fc1cc(F)c(F)c(S)c1F: -1
- CCOC(=O)C(=O)NCCCN1CCOCC1: -1
- N[C@H](Cc1ccc2oc3cc(=O)c4ccccc4c-3nc2c1)C(=O)O: -1
- O=[N+]([O-])c1ccc(C(=S)Nc2ccccc2)o1: -1
- CC(C)OC(=O)[C@H]1ON2O[C@H](O[C@@H]3CCCC[C@H]3c3ccccc3)C([Si](C)(C)c3ccccc3)[C@H]3OC(=O)[C@@H]1C32 (stereo partly drawn): -1
- COC(=O)[C@H]1N[C@@H](C(=O)OC)C23CCC[C@H]2CC[C@]1(C(OC)OC)C3: -1
- COC(=O)[C@H](Cc1ccccc1)NC(=O)N(CCN(CCC#N)C(=O)N[C@H](C(=O)OC)C(C)C)c1ccccc1: -1
- C/C(CC(O)(C(F)(F)F)C(F)(F)F)=N\O: -1
- CC(C)=CCC1=C(OCC(=O)O)C(=O)c2ccccc2C1=O: -1
- c1ccc2c(c1)[nH]c1c[nH]c3c4cccnc4nc-3c12: -1
- O=c1[nH]nc(-c2ccccc2)c2[nH]c(-c3ccccc3)cc12: -1
- CCOC(=O)C(CS)NC(=O)CCCCCCCC(=O)O (stereo not drawn): -1
- C=CC(=O)NCCC(=O)OCn1cc(F)c(=O)[nH]c1=O: -1
- COc1ccc(C(=O)C#Cc2cnc(OC)nc2OC)cc1: -1
- Cc1c(/C=N/N(C)C)oc2c1cc(O)c1ncccc12: -1

###

# Test system: HCC 2998
# TEST NAME: NCI tumour cell line growth inhibition, 48 h
Activity calls are given as the source filed them. Rule as the data show it: active = GI50 up to about 1.1 µM and inactive = higher.
Classes used: yes for active, no for inactive

- COC(=O)c1nn(C(=N)c2ccc(Cl)cc2)c2c1CCCCC2: no
- O=C(CC(=O)N1N=C(N(c2ccccc2)c2ccccc2)CC1c1ccccc1)Nc1ccccc1 (stereo unspecified): no
- COc1cc(Cl)c2c3c(c(C(=O)c4ccccc4)oc13)CCC2: no
- CC[C@@]1(O)C(=O)OCc2c1cc1n(c2=O)Cc2c-1nc1ccccc1c2CC[Si](C)(C)C [COSITECAN]: yes
- CCOC(=O)CN(c1ccccc1)c1nc(=[N+](C)C)ss1: no
- Clc1ccc2oc(CCC3CCCCC3)nc2c1: no

###

Recorded GI50 for the following compounds
# System: SF-539
# TEST NAME: NCI tumour cell line growth inhibition, 48 h
Activity calls are given as the source filed them. Rule as the data show it: active = GI50 up to about 1.1 µM and inactive = higher. Non-standard residues stand in square brackets, D forms with d. Residues, ends and D or L forms follow the SMILES beside them. ξ: configuration not given here. *: point of attachment. Cbz = O=C(OCc1ccccc1)*; ξK = NCCCCC(N)C(=O)O
QUANTITY: GI50

- CCOC(=O)c1nc2c3c(ncn2n1)Oc1c(c(-c2ccccc2)nn1-c1ccccc1)C3c1ccc(Cl)cc1 (stereo not given): > 100 µM (inactive)
- Cc1ccc(-c2nc(N/N=C/C=C/c3ccccc3)c3ccccc3n2)cc1: 55.5 µM (inactive)
- CC1(C2CCC3(C)OC3C2)CO1 (stereo not given): > 100 µM (inactive)
- O=C(CCc1ccc(O)cc1)NCCc1cccc(OCc2ccccc2)c1: 16.5 µM (inactive)
- O=C1c2ccccc2CN1c1ccc(O)cc1: > 100 µM (inactive)
- C=CC(=O)NCCC(=O)OCn1cc(F)c(=O)[nH]c1=O: 2.65 µM (inactive)
- COc1cc(-c2oc3c(OC)c(O)c(OC)c(O)c3c(=O)c2OC)cc(O)c1OC: 20.7 µM (inactive)
- COc1cccc(/C=N/n2c(-c3ccccc3)n[nH]c2=O)c1: 28.1 µM (inactive)
- CC12C(=CC(=O)CC1SCCS(=O)(=O)O)C(C#N)=C(N)N2c1ccc(Cl)c(Cl)c1 (stereo not given): > 100 µM (inactive)
- NCCCCC(NC(=O)OCc1ccccc1)C(=O)NCC(N)=O (stereo not given) (Cbz-[ξK]-Gly-NH2): > 100 µM (inactive)

###

# Tested on: SK-MEL-2
# TEST NAME: NCI tumour cell line growth inhibition, 48 h
Calls of active or inactive are those of the source. Cut-off read from the data, not from the text of the source: active = GI50 up to about 1.1 µM and inactive = higher.
Recorded GI50 for the following compounds
QUANTITY: GI50

- COc1ccc2c(c1)/C(=C\c1cccc(/C=C3/C(=O)Nc4ccc(OC)cc43)n1)C(=O)N2: 3.01 µM (inactive)
- Cc1cc(-c2ccc(C(=O)C(Cl)(Cl)Cl)[nH]2)on1: 23.9 µM (inactive)
- O=Cc1cn(CCCCCn2cc(C=O)c3ccccc32)c2ccccc12: > 100 µM (inactive)
- COc1nc2ncc([C@@H](OC(C)=O)[C@@H](COC(C)=O)OC(C)=O)nc2c(=O)n1C: > 100 µM (inactive)
- O=[N+]([O-])c1ccc(COc2cccc3cccnc23)cc1: 14.6 µM (inactive)
- COC(=O)c1nn(C(=N)c2ccc(Cl)cc2)c2c1CCCCC2: > 100 µM (inactive)
- COc1ccc(NCc2cnc3nc(N)nc(N)c3c2C)cc1: > 100 µM (inactive)
- OCCNCCOc1ccc(/C(=C(/Cl)c2ccccc2)c2ccccc2)cc1: 13.2 µM (inactive)
- CN(C)NC(=O)NC12CC3CC(CC(C3)C1)C2: > 100 µM (inactive)
- CC(C)(C)OC(=O)N/C(C=O)=C\C1CCCCC1: 24.8 µM (inactive)
- CCC(=S)N(C)O: 29.4 µM (inactive)

###

# System: MDA-MB-231
# TEST NAME: NCI tumour cell line growth inhibition, 48 h
Calls of active or inactive are those of the source. Rule as the data show it: active = GI50 up to about 1.1 µM and inactive = higher.
QUANTITY: GI50

- COc1cc(/C=C/c2cc(=O)cc(/C=C/c3ccc(O)c(OC)c3)o2)ccc1O: 26.4 µM (inactive)
- CC[C@@]1(O)C(=O)OCc2c1cc1n(c2=O)Cc2c-1nc1ccccc1c2CC[Si](C)(C)C: 0.417 µM (active)
- O=c1[nH]/c(=C/c2cccs2)c(=O)[nH]/c1=C/c1ccc(OCc2ccccc2)cn1: 0.219 µM (active)
- CSc1ccc2c(cc1=O)[C@@H](NC(C)=O)CCc1cc(O)c(O)c(O)c1-2: 23.9 µM (inactive)
- COc1ccc(CC(O)CN2CCOCC2)cc1 (centres undefined): > 100 µM (inactive)
- CCOC(=O)c1nc2c3c(ncn2n1)Oc1c(c(-c2ccccc2)nn1-c1ccccc1)C3c1ccc(Cl)cc1 (centres undefined): > 100 µM (inactive)
- COc1cccc(/C=N/n2c(-c3ccccc3)n[nH]c2=O)c1: 29.5 µM (inactive)
- CC(=O)OCCN(C1=NCCN1)/[N+](C=c1ccc(=C=[N-])cc1)=C/c1ccc(C#N)cc1: > 100 µM (inactive)
- c1ccc(/N=C2\C(=N/c3ccccc3)N(C3CCCCC3)/C(=N\C3CCCCC3)N2c2ccccc2)cc1: > 100 µM (inactive)
